# Experiment Notes: Ratio of terphenyl LD50 doses to biphenyl HC-3 in charles river CD-1 strain adult male albino mice
# Format: ADME, organism-based
# Protocol Conditions: CD-1, mouse, in vivo
Property: selectivity ratio; scope: individual compounds
Answer using only a numeral; do not append any unit.

Recorded selectivity ratio, per entry:
{"columns": ["Compound", "selectivity ratio"],
 "data": [
  ["CC(=O)OCC[N+](C)(C)CC(=O)c1ccc(-c2ccc(-c3ccc(C(=O)C[N+](C)(C)CCOC(C)=O)cc3)cc2)cc1.[Br-].[Br-]", 2.56],
  ["CCCCC[N+](C)(C)CC(=O)c1ccc(-c2ccc(-c3ccc(C(=O)C[N+](C)(C)CCCCC)cc3)cc2)cc1.[Br-].[Br-]", 32.8],
  ["CC(=O)CCC[N+](C)(C)CC(=O)c1ccc(-c2ccc(-c3ccc(C(=O)C[N+](C)(C)CCCC(C)=O)cc3)cc2)cc1.[Br-].[Br-]", 32.8]
]}

Enquiry: Dear colleague, I am looking for the recorded selectivity ratio of the following compound: CC(=O)SCC[N+](C)(C)CC(=O)c1ccc(-c2ccc(-c3ccc(C(=O)C[N+](C)(C)CCSC(C)=O)cc3)cc2)cc1.[Br-].[Br-]
Return: 23.5

Enquiry: Please give the result for CCOCC[N+](C)(C)CC(=O)c1ccc(-c2ccc(-c3ccc(C(=O)C[N+](C)(C)CCOCC)cc3)cc2)cc1.[Br-].[Br-] too.
Return: 127

Enquiry: Please give the result for C[N+]1(C)CCOC(O)(c2ccc(-c3ccc(-c4ccc(C5(O)C[N+](C)(C)CCO5)cc4)cc3)cc2)C1.[Br-].[Br-] (stereo unspecified) too.
Return: 0.82
